Taken from patent US20250353873A1.

# key: entry, value: APOE RNA (% control) Spinal Cord
test system: human APOE RNA; assay: Duration of action study in APOE C57BL/6NTac-Apoeem7250 knock-in mice (Example 18); assay type: in vivo; settings: spinal cord; 224 days post-dose; single ICV bolus 300 μg; APOE knock-in mice; normalized to mouse Ppia; relative to PBS
Marks after values point to notes of the source that are not given here. Strand notation (5' to 3'): a small letter for the sugar, then the base; units joined by * are phosphorothioate-linked, units joined directly phosphodiester-linked; [ ] holds rarer units or linkages, { } end groups; capitals alone tell only the bases. [ms] = mesyl phosphoramidate linkage; e = 2'-O-(2-methoxyethyl) (MOE); k = constrained ethyl (cEt); [5mC] = 5-methylcytosine; d = 2'-deoxy (DNA)

Examples from the recorded data:
>>> recorded_value("TezTeoGeoGksTdsGdzAdzAdzTds^mCdsTdsTdsTdsAdzTksTksAesAesAes^mCe (antisense eT[ms]eTeGkG*dT*dG[ms]dA[ms]dA[ms]dT*d[5mC]*dT*dT*dT*dA[ms]kT*kT*eA*eA*eA*e[5mC]) [Compound No. 1809814]")
"54 % control"
>>> recorded_value("Aes^mCeoTeoTesGesGksTdsGdzAdzAdzTds^mCdsTdsTdsTdsAdzTksTksAesAe (eA*e[5mC]eTeT*eG*kG*dT*dG[ms]dA[ms]dA[ms]dT*d[5mC]*dT*dT*dT*dA[ms]kT*kT*eA*eA) [Compound No. 1757576]")
"33‡ % control"
>>> recorded_value("Aks^mCeoTeoTesGesGksTdsGdzAdzAdzTds^mCdsTdsTdsTdsAdzTksTksAesAe (kA*e[5mC]eTeT*eG*kG*dT*dG[ms]dA[ms]dA[ms]dT*d[5mC]*dT*dT*dT*dA[ms]kT*kT*eA*eA) [Compound No. 1809635]")
"26 % control"

Okay, now this substance:
Query ^mCksTksTksGdzGdzTdzGdzAdzAdzTds^mCdsTdsTdsTdsAdsTdsTksAksAdzAk (antisense k[5mC]*kT*kT*dG[ms]dG[ms]dT[ms]dG[ms]dA[ms]dA[ms]dT*d[5mC]*dT*dT*dT*dA*dT*kT*kA*dA[ms]kA) [Compound No. 1785602] yields APOE RNA (% control) Spinal Cord of 56 % control

###

system: human APOE RNA; assay: Dose-dependent inhibition of human APOE RNA in HepG2 cells, electroporation, 50,000 cells per well, RT-PCR normalized to GAPDH (Example 4, Tables 8-10); assay type: cell-based; details: HepG2, electroporation, 24-hour treatment
Strand notation (5' to 3'): a small letter for the sugar, then the base; units joined by * are phosphorothioate-linked, units joined directly phosphodiester-linked; [ ] holds rarer units or linkages, { } end groups; capitals alone tell only the bases. [ms] = mesyl phosphoramidate linkage; k = constrained ethyl (cEt); [5mC] = 5-methylcytosine; d = 2'-deoxy (DNA)
pIC50 values, listed per item
In simple prose, pIC50 is minus the logarithm base ten of a concentration in moles per litre.

Past entries and their recorded results:
>>> recorded_value("1746809 (k[5mC]*dT[ms]kT*dG[ms]kG*dT[ms]dG[ms]dA[ms]dA[ms]dT*d[5mC]*dT*dT*dT*dA[ms]dT*dT[ms]kA*kA*kA; antisense) [Compound 1746809]")
6.08
>>> recorded_value("1746787 (k[5mC]*kT*dT[ms]dG[ms]dG[ms]kT*dG[ms]dA[ms]dA[ms]dT*d[5mC]*dT*dT*dT*dA[ms]dT*kT*kA*dA[ms]kA; antisense) [Compound 1746787]")
5.82
>>> recorded_value("1747052 (k[5mC]*dT[ms]kT*kG*dG[ms]kT*dG[ms]dA[ms]dA[ms]dT*d[5mC]*dT*dT*dT*dA[ms]dT*kT*dA[ms]dA[ms]kA; antisense) [Compound 1747052]")
5.57

Then there is this substance:
Entry 1746791 (k[5mC]*dT[ms]dT[ms]kG*kG*dT[ms]dG[ms]dA[ms]dA[ms]dT*d[5mC]*dT*dT*dT*dA[ms]dT*kT*kA*dA[ms]kA; antisense) [Compound 1746791] ; pIC50 = 6.07
